Would you mind telling me the reported %Inh of each entry?
Test system: TRKB;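 also: KINOMEscan kinase panel screen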
condition-parameters: concentration: 1 μM, replicates: in singlicate; n = 1
Numbers only, in %.

Worked set:
>  <molecule>
CCn1cnc2c(NCc3ccccc3)ncnc21 [SKF-96418]

>  <experimental-result>
0

$$$$
>  <molecule>
Fc1cc(Cl)ccc1Nc1ccnc2cc(-c3ccc(CN4CCSCC4)o3)ccc12 [GW560106]

>  <experimental-result>
28

$$$$
>  <molecule>
Cc1cc(-c2c(-c3ccc(F)cc3)ncn2CCCN2CCOCC2)nc(N)n1 [SB-222517]

>  <experimental-result>
0

$$$$

Provide reported %Inh for each item, in the same order as listed.
1. CS(=O)(=O)c1cccc(CNc2nc(Nc3ccc4c(c3)CCC(=O)N4)ncc2C(F)(F)F)c1
2. Nc1ncc(-c2cn[nH]c2)c2scc(-c3ccc4c(c3)CCN4C(=O)Cc3ccccc3)c12 [GSK2593067]
3. Cn1cc(-c2ccc3c(c2)CCN3C(=O)Cc2cc(F)cc(F)c2F)c2c(N)ncnc21 [GSK2634140]
4. COC(=O)Nc1nc2ccc(Oc3ccc(NC(=O)Nc4cc(C(F)(F)F)ccc4F)cc3)cc2[nH]1.Cl [GW654607]
5. O=C1NC(=O)C(c2ccccc2Cl)=C1Nc1cccc(Cl)c1 [SB-342409]

Ans.
92.9
63
0
94.8
0

Qu. Please give the measured %Inh for this molecule: COc1cccc2c(-c3ccncc3)c(-c3ccc(F)cc3)nn12 [GW468513]
Ans. 11

From: paper PMC5540273
